Exercise: for every item that follows, state its recorded melting point.

Some solved cases for reference:
C[C@@H](Nc1ncnc2cc(OCCOS(C)(=O)=O)c([N+](=O)[O-])cc12)c1ccccc1 | 128 to 134 °C
COc1ccc(CNc2cccc3nc(-c4cccc(Cl)c4)oc23)cc1OC1CCCC1 | 133 to 134 °C
CC(C)(C)NC(=O)c1ccc(S(=O)(=O)N2C(=O)C(C)(c3ccccc3Cl)c3cc(OCC(F)(F)F)ccc32)cc1 (stereo unspecified) | 134 °C

Working through the 4 compounds below one at a time, give melting point for each.
1. CCCCN1C(=O)CC(=O)NC1=O
2. CO/N=C(\C(=O)OCCSc1nc2ccccc2s1)c1csc(NC=O)n1
3. O=C(O)Cn1cnnn1
4. O=C(O)COc1cc2c(c(Cl)c1Cl)C(=O)C(c1ccccc1)C2 (stereo unspecified)

## Output
1: 107 to 108 °C; 2: 172 to 173 °C; 3: 125 to 127 °C; 4: 181 to 185 °C

* * *

measure: melting point

Working through the 2 compounds below one at a time, give melting point for each.
1. COc1ccc2c(c1)/C(=C\CNC(=O)NC(C)(C)C)C(C)(C)CC2
2. CC(C)C[C@@H](C(=O)O)N(C)Cc1ccc(C(C)(C)C)cc1

## Output
["175 to 176 °C", "110 to 112 °C"]

* * *

Exercise: for every item that follows, state its recorded melting point.

Some solved cases for reference:
COc1ccc2c(c1)CCc1ccccc1C2=O | 72 to 73 °C
CCNc1nc(Cl)c(SC)c(Cl)n1 | 147 °C
C=CCNc1cc(Cl)nnc1NN | 184 to 186 °C
O=C(/C=C/c1ccc2cc[nH]c2c1)CC(=O)/C=C/c1ccc(OCc2ccccn2)cc1O | 188 to 190 °C
COC(=O)c1ccc(-c2nn(Cc3ccccc3)c3ccc([N+](=O)[O-])cc23)o1 | 134 to 135 °C
CC1(C)Oc2cc3nonc3cc2[C@@H](NC(=O)Nc2ccccc2)[C@@H]1O (relative stereo) | 215 to 216 °C
CCc1cccc(CC)c1NS(=O)(=O)c1ccc(C)cc1 | 130 to 131 °C
O=C(NCCCn1ccnc1)c1ccccc1 | 134 to 136 °C
O=C(O)CCc1cnoc1-c1cccc(Cl)c1 | 110 to 111 °C
Cc1cc(Cl)cc(C(=O)Nc2ccc(F)cn2)n1 | 156 °C

Working through the 2 compounds below one at a time, give melting point for each.
1. CCCCCCCSc1nnc(N)s1
2. CC1(C)C(=O)ON(Cc2ccc(Cl)cc2Cl)C1=O

## Output
["112 to 113 °C", "68 to 69.5 °C"]

Working through the 3 compounds below one at a time, give melting point for each.
1. CCC1(c2cccc(S(=O)(=O)c3ccc(C(C)(C)C)cc3)c2)COC(C)(C)O1 (configuration not stated)
2. O=C1CCN(Cc2ccccc2)CC1=C(c1ccccc1)c1ccccc1
3. Cc1ccc(-c2c3ccccc3c(-c3ccc(C)cc3)c3cc(Cl)ccc23)cc1

## Output
1. 108 to 110 °C
2. 135 to 137 °C
3. 202 to 204 °C

* * *

Exercise: for every item that follows, state its recorded melting point.

Some solved cases for reference:
Cc1cc(CC(=O)NCc2cccc3c2C(=O)N(C2CCC(=O)NC2=O)C3=O)c(C)o1 (stereo not given) | 193 to 195 °C
Nc1cc(Cl)c(Cl)cc1I | 79.5 to 80.5 °C

Working through the 8 compounds below one at a time, give melting point for each.
1. CN(C)CCC1CCC2(CC1)Nc1ccc(Cl)cc1S(=O)(=O)N2 (stereo not given)
2. CCCc1c(O)n2c3c(=O)n(C)c(=O)n(C)c3nc2n(Cc2ccccc2)c1=O
3. COc1ccc(OC)c(S(=O)(=O)n2c(COC(C)(C)C(=O)O)cc3cc(Cl)ccc32)c1
4. Cc1cc(C)c2nc(C3CC3)n(Cc3ccc(C(CC(=O)O)c4ccccc4)cc3)c2n1 (stereo not given)
5. CCOC(=O)c1c(O)c2cccc3c2n(c1=O)CCO3
6. O=C1C(=O)c2ccccc2C2=C1SCC1(CCN(CC(O)COc3ccc(Cl)cc3)CC1)O2 (stereo not given)
7. CN1CCN(c2ccc3[nH]c(=O)oc(=O)c3c2)CC1
8. COc1ccccc1C1(NCCC(=O)OC(C)(C)C)C(=O)Nc2ccc(Cl)cc21 (stereo not given)

## Output
1: 234 to 235 °C; 2: 217 °C; 3: 156 to 158 °C; 4: 189 to 190 °C; 5: 160 to 164 °C; 6: 138 to 140 °C; 7: 285 °C; 8: 170 °C

* * *

measure: melting point

Cc1ccc2c(c1)C(c1ccccc1)=NCc1nnc(CN(C)C)n1-2 | 154 to 156 °C
COc1ccc(CNC2(Cc3ccccc3)CCC(=O)CC2)cc1 | 122 to 124 °C
O=C(NC1CCC(Oc2ccc(F)cc2)CC1)NC12CC3CC(CC(C3)C1)C2 (stereo not given) | 243 °C

Working through the 2 molecules below one at a time, give melting point for each.
1. OC1C(COCC(F)(F)F)OC(n2cnc3c(NC4CCCC4)ncnc32)C1O (stereo not given)
2. CCC(C(=O)O)c1cccc(C(=O)c2cc3ccsc3s2)c1 (stereo not given)

## Output
["74 to 76 °C", "143 °C"]

Working through the 4 molecules below one at a time, give melting point for each.
1. CCOC(=O)c1ncc2[nH]c3ccccc3c2c1C
2. CC1=CC(c2cccc(Br)c2)C2=C(CCCC2=O)N1 (stereo not given)
3. CC(C)(C)OC(=O)c1ccc(Cl)cn1
4. COCCNC(=O)c1cc(-c2ccccc2)c(=O)[nH]c1-c1c(Cl)cccc1C#N

## Output
1: 235 to 239 °C; 2: 187 to 191 °C; 3: 86.3 to 88.3 °C; 4: 252 to 255 °C

Working through the 7 molecules below one at a time, give melting point for each.
1. O=c1oc(-c2cccc(S(=O)C(F)(F)F)c2)nc2ccccc12 (stereo not given)
2. CC1CC(=O)NN=C1c1cccc(C(F)(F)F)c1 (stereo not given)
3. CN(C)c1ccc(C(=O)NC2CCN(C(c3ccccc3)c3ccccc3)CC2)c(N)c1
4. Cc1nc(N2CCC(N(C)C)CC2)c2nc(-c3ccccc3)cc-2[nH]1
5. Fc1ccccc1C1=NCc2cnc(-c3ccccc3)n2-c2ccc(Cl)cc21
6. CSc1ccc(Nc2nc(=O)cc(N)n2-c2ccccc2)cc1
7. CS(=O)(=O)c1ccc(-n2cnc3ccc(-c4nnc(CCc5cccc(C(F)(F)F)c5)o4)cc32)cc1

## Output
106 to 108 °C
132 to 134 °C
118 °C
262 to 263 °C
241 to 243 °C
133 to 135 °C
204 to 205 °C

Working through the 8 molecules below one at a time, give melting point for each.
1. Nc1c(F)c(N2CC3NCCOC3C2)c(F)c2c1c(=O)c(C(=O)O)cn2C1CC1F (stereo not given)
2. COC(=O)COc1cccc2c(CCS(=O)(=O)CCc3ccccc3)c(C)oc12
3. Cc1cc(Br)cc(Br)c1NC(=N)Nc1c(C)cc([N+](=O)[O-])cc1Br
4. CC(=O)CCC(=O)c1ccccc1
5. COc1ccc(/C=C(\C#N)c2ccc([N+](=O)[O-])cc2)cc1OC1CCCC1
6. CC(C)(S)C1COC(=O)N1 (stereo not given)
7. COc1ccccc1OCCCc1oc(N2CCOCC2)nc1-c1ccc(Cl)cc1
8. O=CCCc1nc(-c2ccc(Cl)cc2)co1

## Output
["292 to 294 °C", "91 to 92 °C", "193 to 195 °C", "31 °C", "186 to 187 °C", "124 to 126 °C", "81 to 82 °C", "41 to 42 °C"]

* * *

measure: melting point

Some solved cases for reference:
CC(C)(C)OC(=O)NC[C@H](O)CC(=O)NN | 144 °C
COc1ccccc1C(=O)C=CC(=O)O | 146 to 148 °C
ClC(Cl)(Cl)c1nncs1 | 58 °C
CCc1coc2c(-c3ccc(F)cc3)c(-c3ccc(S(C)(=O)=O)cc3)nn12 | 177 to 179 °C
Cc1nc2c3c(c(C(=O)N4CCC(O)C4)cc2n1C)CCC(c1ccccc1)O3 (stereo unspecified) | 322 to 324 °C

Turning now to a further compound:
## Input Returns the measured melting point for the input compound. Input: CC(N)CSc1c[nH]c2ccccc12 (stereo unspecified)
## Output 110 to 112 °C

* * *

measure: melting point

CCCn1c(=O)c2c(nc(C=O)n2C)n(CCC)c1=O | 130 °C
c1ccc(C(OC2CCN(CCCn3cnc4ccccc43)CC2)c2ccccc2)cc1 | 110 °C
CN1C(=O)C2(COc3cc4c(cc32)OCCO4)c2c(-c3cc[nH]n3)cccc21 (stereo unspecified) | 201 to 202 °C
C=CCOC(=O)c1c(Cl)c(OC)cc(O[Si](C)(C)C(C)(C)C(C)C)c1C=O | 97 °C
CN(C)Cc1cccc(-c2cc3c4c(ccn4C(=O)CNC3)c2)c1 | 98 to 100 °C

Working through the 7 molecules below one at a time, give melting point for each.
1. CCOC(=O)C(=NO)c1ccc(F)cc1
2. CCOCCOC(=O)C(=O)Nc1nc(-c2ccc(C(C)(C)C)cc2)cs1
3. CNC(=S)NCC1=C(n2ccccc2=O)c2cc([N+](=O)[O-])ccc2OC1(C)C
4. CN(C)C(=O)Cc1c(-c2ccccc2)nn2cccnc12
5. CC(C)C(NC(=O)C(Cc1ccccc1)NC(=O)OCc1ccccc1)C(=O)Nc1n[nH]c(=S)s1 (stereo unspecified)
6. O=C(O)Cc1csc(NC(=O)C(F)(F)F)n1
7. CC1(C)CS(=O)(=O)c2ccccc2C1c1cncnc1S(C)(=O)=O (stereo unspecified)

## Output
117 to 118 °C
158 to 160 °C
225 °C
156 to 158 °C
170 to 174 °C
117 to 120 °C
202 to 208 °C
